These data points were gathered from patent US20250243180A1.

Biological target: NEK7 (Homo sapiens (Human), UniProt Q8TDX7+Q96SW2)
Sequence (Q8TDX7 whole entry): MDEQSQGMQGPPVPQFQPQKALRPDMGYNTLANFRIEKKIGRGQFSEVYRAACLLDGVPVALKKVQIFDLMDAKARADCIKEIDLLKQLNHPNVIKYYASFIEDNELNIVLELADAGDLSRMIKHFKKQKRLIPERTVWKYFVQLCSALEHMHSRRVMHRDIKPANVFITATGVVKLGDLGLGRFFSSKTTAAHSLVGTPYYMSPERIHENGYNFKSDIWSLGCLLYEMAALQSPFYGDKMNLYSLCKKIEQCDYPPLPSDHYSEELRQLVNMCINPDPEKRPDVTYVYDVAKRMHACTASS
Sequence (Q96SW2 whole entry): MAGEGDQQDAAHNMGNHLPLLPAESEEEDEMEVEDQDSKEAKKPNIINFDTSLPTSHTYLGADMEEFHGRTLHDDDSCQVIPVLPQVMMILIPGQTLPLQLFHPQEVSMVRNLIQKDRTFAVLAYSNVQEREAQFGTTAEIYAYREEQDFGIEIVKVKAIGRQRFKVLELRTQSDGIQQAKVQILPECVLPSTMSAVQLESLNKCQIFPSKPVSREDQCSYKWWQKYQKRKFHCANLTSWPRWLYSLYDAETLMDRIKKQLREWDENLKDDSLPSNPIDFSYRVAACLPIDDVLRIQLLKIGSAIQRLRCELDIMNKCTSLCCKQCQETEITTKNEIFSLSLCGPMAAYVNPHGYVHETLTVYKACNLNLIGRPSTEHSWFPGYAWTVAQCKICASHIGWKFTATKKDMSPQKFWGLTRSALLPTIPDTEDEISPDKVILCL
Sequence (Q16531 2-1140 partner): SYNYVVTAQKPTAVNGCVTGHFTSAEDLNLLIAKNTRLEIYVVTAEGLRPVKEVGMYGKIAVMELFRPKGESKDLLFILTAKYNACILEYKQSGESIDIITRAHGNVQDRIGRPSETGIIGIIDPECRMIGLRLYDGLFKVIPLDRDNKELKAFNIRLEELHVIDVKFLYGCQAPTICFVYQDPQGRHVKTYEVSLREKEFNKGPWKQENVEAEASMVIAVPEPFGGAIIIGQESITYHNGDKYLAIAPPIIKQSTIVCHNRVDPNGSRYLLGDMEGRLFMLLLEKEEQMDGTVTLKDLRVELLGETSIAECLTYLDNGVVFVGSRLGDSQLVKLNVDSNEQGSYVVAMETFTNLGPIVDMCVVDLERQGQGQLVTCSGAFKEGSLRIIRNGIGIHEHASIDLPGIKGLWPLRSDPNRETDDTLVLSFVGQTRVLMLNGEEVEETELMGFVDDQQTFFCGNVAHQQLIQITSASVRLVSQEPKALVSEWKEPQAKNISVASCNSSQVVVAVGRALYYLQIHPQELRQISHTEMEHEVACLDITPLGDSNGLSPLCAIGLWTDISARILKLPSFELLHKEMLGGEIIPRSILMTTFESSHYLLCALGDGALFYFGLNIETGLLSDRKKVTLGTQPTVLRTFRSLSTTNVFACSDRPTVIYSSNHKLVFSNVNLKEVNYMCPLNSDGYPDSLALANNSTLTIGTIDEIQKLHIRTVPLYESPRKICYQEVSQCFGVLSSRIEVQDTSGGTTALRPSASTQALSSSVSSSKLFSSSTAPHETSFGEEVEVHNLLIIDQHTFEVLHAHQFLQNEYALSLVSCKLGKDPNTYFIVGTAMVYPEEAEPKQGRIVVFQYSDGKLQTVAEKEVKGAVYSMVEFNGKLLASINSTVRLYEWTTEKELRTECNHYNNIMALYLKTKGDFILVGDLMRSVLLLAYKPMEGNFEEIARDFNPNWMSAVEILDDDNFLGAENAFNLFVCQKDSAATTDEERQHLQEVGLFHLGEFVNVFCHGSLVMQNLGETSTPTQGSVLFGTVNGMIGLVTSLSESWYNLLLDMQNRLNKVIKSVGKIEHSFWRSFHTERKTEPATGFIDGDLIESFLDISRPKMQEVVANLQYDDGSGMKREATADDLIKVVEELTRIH
Assay: NEK7 NanoBiT degradation assay in Cal51 NEK7 NanoBiT cell line
Assay type: cell-based
Conditions: CAL-51; NEK7 degradation, Cal51 NEK7 NanoBiT cells, 24 hours; read-out: NanoBiT Dmax
Each entry below lists one item and its recorded Dmax value.

A selection of reference data follows.
# Compound, Dmax
data = [
    ("CC(C)(C(=O)NCc1ccc(C2CCC(=O)NC2=O)c(Cl)c1)c1ccc(C#N)cc1 (stereo not shown) [Compound 28]", "> 75%"),
    ("CC(C)(C(=O)NCc1cc(F)c(C2CCC(=O)NC2=O)c(Cl)c1)c1ccncc1 (stereo not shown) [Compound 106]", "> 75%"),
    ("COCc1nc(C(C)(C)C(=O)NCc2cc(Cl)c(C3CCC(=O)NC3=O)c(Cl)c2)ncc1C (stereo not shown) [Compound 233]", "50 to 75%"),
    ("COCCc1cnc(C(C)(C)C(=O)NCc2cc(Cl)c(C3CCC(=O)NC3=O)c(Cl)c2)nc1 (stereo not shown) [Compound 245]", "≤ 50%"),
    ("Cn1c(F)cc(C(C)(C)C(=O)NCc2cc(Cl)c(C3CCC(=O)NC3=O)c(Cl)c2)cc1=O (stereo not shown) [Compound 172]", "> 75%"),
    ("Cc1cnc(C(C)(C)C(=O)NCc2cc(Cl)c(C3CCC(=O)NC3=O)c(Cl)c2)cn1 (stereo not shown) [Compound 162]", "> 75%"),
    ("COc1ccc(C(C)(C)C(=O)NCc2cc(F)c(C3CCC(=O)NC3=O)c(Cl)c2)nn1 (stereo not shown) [Compound 262]", "> 75%"),
    ("CC(C)(C(=O)NCc1cc(Cl)c(C2CCC(=O)NC2=O)c(Cl)c1)c1ccccn1 (stereo not shown) [Compound 20]", "> 75%"),
    ("Cc1coc(C(C)(C)C(=O)NCc2cc(Cl)c(C3CCC(=O)NC3=O)c(Cl)c2)n1 (stereo not shown) [Compound 197]", "> 75%"),
    ("O=C1CCC(c2c(Cl)cc(CNC(=O)C3(c4ccc(F)cc4)CC(F)(F)C3)cc2Cl)C(=O)N1 (stereo not shown) [Compound 139]", "> 75%"),
]

Tell us which Dmax value is on record for CC(C)(C(=O)NCc1cc(Cl)c(C2CCC(=O)NC2=O)c(Cl)c1)c1ccc(C#N)cn1 (stereo not shown) [Compound 15]
> 75%

Tell us which Dmax value is on record for CC(C)(C(=O)NCc1cc(Cl)c(C2CCC(=O)NC2=O)c(Cl)c1)c1cccnc1 (stereo not shown) [Compound 99]
> 75%

Tell us which Dmax value is on record for CC(C)(C(=O)NCc1cc(Cl)c(C2CCC(=O)NC2=O)c(Cl)c1)c1ncoc1C(F)(F)F (stereo not shown) [Compound 199]
50 to 75%

Tell us which Dmax value is on record for CC(C)(C(=O)NCc1cc(F)c(C2CCC(=O)NC2=O)c(Cl)c1)c1ccc(C(F)F)nn1 (stereo not shown) [Compound 280]
50 to 75%

Tell us which Dmax value is on record for CC1(C(=O)NCc2cc(Cl)c(C3CCC(=O)NC3=O)c(Cl)c2)COc2ccccc2C1 (stereo not shown) [Compound 38]
> 75%

Tell us which Dmax value is on record for CC(C)(C(=O)NCc1cc(Cl)c(C2CCC(=O)NC2=O)c(Cl)c1)c1nc(C2CC2)co1 (stereo not shown) [Compound 193]
> 75%

* * *

Target: CRBN-DDB1 (Homo sapiens (Human), UniProt Q96SW2)
Sequence (Q16531 whole entry partner, one chain of several): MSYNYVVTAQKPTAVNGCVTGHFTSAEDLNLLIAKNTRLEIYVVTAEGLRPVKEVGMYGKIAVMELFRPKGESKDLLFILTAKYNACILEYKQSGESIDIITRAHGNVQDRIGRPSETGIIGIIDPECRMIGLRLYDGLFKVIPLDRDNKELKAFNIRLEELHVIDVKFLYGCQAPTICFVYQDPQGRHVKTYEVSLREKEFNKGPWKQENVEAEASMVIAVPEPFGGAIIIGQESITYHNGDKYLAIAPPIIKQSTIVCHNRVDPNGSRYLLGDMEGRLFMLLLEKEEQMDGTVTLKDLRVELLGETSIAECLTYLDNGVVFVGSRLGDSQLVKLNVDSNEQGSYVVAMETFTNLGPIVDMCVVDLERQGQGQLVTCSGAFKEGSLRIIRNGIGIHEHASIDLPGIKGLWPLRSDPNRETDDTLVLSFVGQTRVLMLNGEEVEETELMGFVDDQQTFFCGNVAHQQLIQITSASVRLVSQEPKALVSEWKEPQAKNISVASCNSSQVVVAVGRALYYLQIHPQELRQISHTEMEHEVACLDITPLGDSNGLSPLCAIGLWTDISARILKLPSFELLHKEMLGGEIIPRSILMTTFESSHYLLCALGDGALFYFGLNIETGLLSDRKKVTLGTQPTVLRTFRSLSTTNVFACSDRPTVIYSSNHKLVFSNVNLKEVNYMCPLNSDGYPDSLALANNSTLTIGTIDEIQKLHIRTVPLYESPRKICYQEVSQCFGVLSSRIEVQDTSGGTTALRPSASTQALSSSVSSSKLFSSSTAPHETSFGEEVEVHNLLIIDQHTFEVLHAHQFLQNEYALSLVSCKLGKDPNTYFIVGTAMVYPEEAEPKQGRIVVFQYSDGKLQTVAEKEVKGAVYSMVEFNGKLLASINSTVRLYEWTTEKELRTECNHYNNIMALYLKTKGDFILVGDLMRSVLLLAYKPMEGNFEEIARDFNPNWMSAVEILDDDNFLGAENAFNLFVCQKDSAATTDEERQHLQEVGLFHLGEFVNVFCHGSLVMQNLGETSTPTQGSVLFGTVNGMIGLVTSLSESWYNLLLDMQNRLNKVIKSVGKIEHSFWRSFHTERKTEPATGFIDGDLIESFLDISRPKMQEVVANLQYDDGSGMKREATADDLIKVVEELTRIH
Assay: Compound binding to CRBN by HTRF assay
Measurement label: EC50 (nM)

A selection of reference data follows.
# Compound, Assay target, Scale unit, EC50
data = [
    ("Cc1cc(C(C)(C)C(=O)NCc2cc(Cl)c(C3CCC(=O)NC3=O)c(Cl)c2)cc(=O)[nH]1 (stereo not shown)", "CRBN-DDB1 (Homo sapiens (Human), UniProt Q96SW2)", "nM", 180),
    ("Cn1c(=O)[nH]c2cc(C(C)(C)C(=O)NCc3cc(Cl)c(C4CCC(=O)NC4=O)c(Cl)c3)ccc21 (stereo not shown)", "CRBN-DDB1 (Homo sapiens (Human), UniProt Q96SW2)", "nM", 470),
]

I = CC(C)(C(=O)NCc1cc(Cl)c(C2CCC(=O)NC2=O)c(Cl)c1)c1cn(C(C)(F)F)c(=O)cn1 (stereo not shown)
II = O=C1CCC(c2c(Cl)cc(CNC(=O)C3(c4ccncc4)CCC3)cc2Cl)C(=O)N1 (stereo not shown)
Given I and II , report the one with the higher recorded EC50. # answer = label of selected item
I

* * *

Target: NEK7 (Homo sapiens (Human), UniProt Q8TDX7+Q96SW2)
Experiment: NEK7 NanoBiT degradation assay in Cal51 NEK7 NanoBiT cell line
Type: cell-based
Settings: CAL-51; Cal51 NEK7 NanoBiT cells, 24 hours; read-out: NEK7 NanoBiT Dmax
Measurement label: Dmax (%)

A selection of reference data follows.
# Compound, Measurement label, Measured value
records = [
    ("CC(C)(C(=O)NCc1ccc(C2CCC(=O)NC2=O)c(Cl)c1)c1ccc(Cl)nc1 (stereo not shown) [Compound 105]", "Dmax", 84),
    ("CC(C)(C(=O)NCc1cc(Cl)c(C2CCC(=O)NC2=O)c(Cl)c1)c1ccno1 (stereo not shown) [Compound 120]", "Dmax", 68),
]

P = CC(C)(C(=O)NCc1cc(Cl)c(C2CCC(=O)NC2=O)c(Cl)c1)c1ccc(F)cc1 (stereo not shown) [Compound 96]
Q = CC(C)(C(=O)NCc1cc(Cl)c([C@@]2(F)CCC(=O)NC2=O)c(Cl)c1)c1ccccc1 (single isomer, unassigned) [Compound 274]
Given P and Q , report the one with the higher recorded Dmax. # answer = label of selected item
P
(P: 97%, Q: 3%)

* * *

Target: NEK7 (Homo sapiens (Human), UniProt Q8TDX7+Q96SW2)
Assay: NEK7 NanoBiT degradation assay in Cal51 NEK7 NanoBiT cell line
Format: cell-based
Settings: NEK7 degradation, Cal51 NEK7 NanoBiT cells, 24 hours; read-out: NanoBiT DC50
Each entry below lists one item and its recorded DC50 value.

# Compound, Measurement label, Measured value
data = [
    ("CC(C)(C(=O)NCc1ccc(C2CCC(=O)NC2=O)c(Cl)c1)c1ccc(S(N)(=O)=O)cc1 (stereo not shown)", "DC50", "100 to 1000 nM"),
    ("COc1nccc(C(C)(C)C(=O)NCc2cc(Cl)c(C3CCC(=O)NC3=O)c(Cl)c2)n1 (stereo not shown)", "DC50", "≤ 100 nM"),
    ("CC(C)(C(=O)NCc1cc(Cl)c(C2CCC(=O)NC2=O)c(Cl)c1)N1CCc2ccccc21 (stereo not shown)", "DC50", "100 to 1000 nM"),
    ("CC(C)(C(=O)NCc1cc(F)c(C2CCC(=O)NC2=O)c(Cl)c1)c1ccc(OC(F)F)nn1 (stereo not shown)", "DC50", "≤ 100 nM"),
    ("COc1cnc(C(C)(C)C(=O)NCc2cc(F)c(C3CCC(=O)NC3=O)c(Cl)c2)cn1 (stereo not shown)", "DC50", "≤ 100 nM"),
]

Tell us which DC50 value is on record for CCOc1cnc(C(C)(C)C(=O)NCc2cc(Cl)c(C3CCC(=O)NC3=O)c(Cl)c2)cn1 (stereo not shown)
≤ 100 nM

Tell us which DC50 value is on record for CC(C)(C(=O)NCc1cc(Cl)c(C2CCC(=O)NC2=O)c(Cl)c1)c1ncc(C(=O)O)cn1 (stereo not shown)
> 1000 nM

Tell us which DC50 value is on record for CC(C)(C(=O)NCc1cc(Cl)c(C2CCC(=O)NC2=O)c(Cl)c1)c1ccc2nonc2c1 (stereo not shown)
≤ 100 nM

Tell us which DC50 value is on record for CC(C)(C(=O)NCc1cc(Cl)c(C2CCC(=O)NC2=O)c(Cl)c1)c1ccccn1 (stereo not shown)
≤ 100 nM

Tell us which DC50 value is on record for COCCc1cnc(C(C)(C)C(=O)NCc2cc(Cl)c(C3CCC(=O)NC3=O)c(Cl)c2)nc1 (stereo not shown)
100 to 1000 nM

* * *

Target: CRBN-DDB1 (Homo sapiens (Human), UniProt Q96SW2)
Assay: Compound binding to CRBN by HTRF assay
Measurement label: EC50 (nM)

A selection of reference data follows.
# Molecule, Measured value
rows = [
    ("CC(F)(F)c1cnc(C(C)(C)C(=O)NCc2cc(Cl)c(C3CCC(=O)NC3=O)c(Cl)c2)nc1 (stereo not shown)", 100),
    ("Cc1nccc(C(C)(C)C(=O)NCc2cc(Cl)c(C3CCC(=O)NC3=O)c(Cl)c2)n1 (stereo not shown)", 150),
    ("COc1nccc(C(C)(C)C(=O)NCc2cc(Cl)c(C3CCC(=O)NC3=O)c(Cl)c2)n1 (stereo not shown)", 50),
]

A = CC(C)(C(=O)NCc1cc(Cl)c(C2CCC(=O)NC2=O)c(Cl)c1)c1c(F)cccc1F (stereo not shown)
B = Cn1ccc(C(C)(C)C(=O)NCc2cc(Cl)c(C3CCC(=O)NC3=O)c(Cl)c2)cc1=O (stereo not shown)
C = O=C1CCC(c2ccc(CNC(=O)C3(c4ccc(F)cc4)CCOCC3)cc2Cl)C(=O)N1 (stereo not shown)
Order these by EC50, descending, and give the full ranking. # list labels per requested ordering
B, C, A
